- experiment: physchem
reported metric: logP
Answer using only a numeral; do not append any unit.

Exercise: Form field: reported logP of CC(=O)Oc1ccccc1C(=O)O [Aspirin(ASP), acetylsalicylic acid, reference compound]
Solution: 1.32
